assay: Plasma kinetics, intravenous, Sprague-Dawley rats; type: in vivo, female Sprague-Dawley rats; details: female, Sprague-Dawley, rat, plasma; IV 1 mg/kg
outcome-measure: clearance (mL/min/kg)

[[record]]
record_smiles = "Cc1cc(Cl)c(COc2cccc3c(-n4cc(F)cn4)cc(C)nc23)c(Cn2cccc(C#N)c2=O)n1"
outcome_measure = "clearance"
reported_value = 15.8


###

assay: Plasma kinetics, intravenous, Sprague-Dawley rats; type: in vivo, female Sprague-Dawley rats; settings: female, Sprague-Dawley, rat, plasma; IV 1 mg/kg
outcome-measure: AUC(0-t) (µg·h/mL)

[[record]]
record_smiles = "Cc1cc(Cl)c(COc2cccc3c(-n4cc(F)cn4)cc(C)nc23)c(Cn2cccc(C#N)c2=O)n1"
unit_name = "µg·h/mL"
reported_value = 1.15


###

experiment: Plasma kinetics, intravenous, CD-1 mice; format: in vivo, female CD-1 mice; conditions: female, CD-1, mouse, plasma; IV 1 mg/kg; read-out: AUClast ± SE
outcome-measure: AUC(0-t) (ng·h/mL)

[[record]]
record_smiles = "Cc1cc(Cl)c(COc2cccc3c(-n4cc(F)cn4)cc(C)nc23)c(Cn2cccc(C#N)c2=O)n1"
unit_name = "ng·h/mL"
reported_value = 68.1


###

experiment: Pharmacokinetics, single oral gavage, 2 formulations, Wistar and Sprague-Dawley rats; format: in vivo; settings: male, Wistar, rat, plasma, po, 75 mg/kg, Formulation 2, Wistar (Male)
outcome-measure: Cmax (ng/mL)

[[record]]
compound = "Cc1cc(Cl)c(COc2cccc3c(-n4cc(F)cn4)cc(C)nc23)c(Cn2cccc(C#N)c2=O)n1 [CFMQ]"
reported_value = 94.9


###

assay: Plasma kinetics, intravenous, CD-1 mice; format: in vivo, female CD-1 mice; conditions: female, CD-1, mouse, plasma; IV 1 mg/kg, extrapolated to t = 0
outcome-measure: C0

[[record]]
record_smiles = "Cc1cc(Cl)c(COc2cccc3c(-n4cc(F)cn4)cc(C)nc23)c(Cn2cccc(C#N)c2=O)n1"
outcome_measure = "C0"
reported_value = "0.214 µg/mL"


###

test: Plasma kinetics, intravenous, Sprague-Dawley rats; type: in vivo, female Sprague-Dawley rats; conditions: female, Sprague-Dawley, rat, plasma; IV 1 mg/kg, 0.50 hr; read-out: Average Concentration of HGT3711
outcome-measure: concentration at 0.5 hr (ng/mL)

[[record]]
record_smiles = "Cc1cc(Cl)c(COc2cccc3c(-n4cc(F)cn4)cc(C)nc23)c(Cn2cccc(C#N)c2=O)n1"
outcome_measure = "concentration at 0.5 hr"
reported_value = 324

